Experiment: In vitro metabolic stability in mouse liver microsomes
Assay type: in vitro ADME
Conditions: male, C57BL, mouse, mouse liver microsomes, pH 7.4; MLMs; 2 μM violacein, 1 mg/mL microsomal protein, NADPH-regenerating system, 37 °C; n = 3; read-out: In vitro elimination half-life (t1/2)
Description: After removal, a pool consisting of livers from five naïve male rats and five C57BL male mice was immediately placed in a 50 mM Tris-HCl buffer, pH 7.4, containing 150 mM KCl. […] The metabolic stability of volacein was assessed as described by Godoi et al. and Antunes et al.. […] Violacein was analyzed using LC-MS/MS (LC-QQQ MS, LCMS8045, Shimadzu, Kyoto, Japan). […]
measure: half-life at 2 µM
Include the unit after the number when you answer.

Request: Which half-life at 2 µM reading was recorded for the molecule `O=C1NC(c2c[nH]c3ccc(O)cc23)=C/C1=C1\C(=O)Nc2ccccc21` ?
Result: 1.35 h

These entries and their values trace back to paper PMC12114947.
